target: TNF-alpha (Homo sapiens, UniProt P01375 P01375:77-233); assay: filter; 2'F version; conditions: tags: Genzyme or R&D Systems; chain copies: 3 inferred
Sequence (P01375 77-233, one chain of several): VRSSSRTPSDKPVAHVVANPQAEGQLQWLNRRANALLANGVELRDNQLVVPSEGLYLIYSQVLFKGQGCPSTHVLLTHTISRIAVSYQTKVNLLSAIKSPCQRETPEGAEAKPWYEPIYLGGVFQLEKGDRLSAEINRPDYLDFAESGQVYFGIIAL
Property: pKd
Remember the convention: pKd equals -log10 of concentration in molar.

Would you please look over these solved cases?
Binder	Recorded value
TNF 14C 2'F (ssRNA, 2'-F all C and U) RNA: GGGAGCUCAGAAUAAACGCUCAACGGCUUGCAGGUCGCCGAAAUGACCGCACAUUCGACAUGAGGCCCGGAUCCGGC	6.88
TNF 8C 2'F (ssRNA, 2'-F all C and U) RNA: GGGAGCUCAGAAUAAACGCUCAAGUCCACACUUUGCCGAGCGUCCUAGUGUUCGACAUGAGGCCCGGAUCCGGC	6.30
TNF 4A 2'F (ssRNA, 2'-F all C and U) RNA: GGGAGCUCAGAAUAAACGCUCAACGCACUCGGACGGAAUCUCCGUAGGACACGUUCGACAUGAGGCCCGGAUCCGGC	6.75
TNF 9C 2'F (ssRNA, 2'-F all C and U) RNA: GGGAGCUCAGAAUAAACGCUCAAAUGGUGGAGGCCAUCUCAAACCCACGACACUUCGACAUGAGGCCCGGAUCCGGC	6.40

Consider the additional binder presented here.
response.value for TNF 16C 2'F (ssRNA, 2'-F all C and U) RNA: GGGAGCUCAGAAUAAACGCUCAACCUGGUGGUCGUGCGGCUGUCGCCUCAAGGUUCGACAUGAGGCCCGGAUCCGGC (field: pKd) = 6.91
